tested on: HCC38 (Breast Carcinoma); test: combination Emax (second highest fraction inhibited in the dose matrix, 72 h); higher = more inhibition; extreme values may be limits of the assay
Property: combination Emax; scope: individual compounds
metric: combination Emax

compound	numeric.result
Cc1c2c(nn1C)CSCc1cc(n(C)n1)CSc1cc(c3ccccc3c1)OCCCc1c(C(=O)O)n(C)c3c-2c(Cl)ccc13 [AZD5991] + C1CN(CCC1(C(=O)N[C@@H](CCO)C2=CC=C(C=C2)Cl)N)C3=NC=NC4=C3C=CN4 [Capivasertib] (first compound max 1 µM, 7x7, partner max 3 µM)	0.506
CN(CCO)CC[C@H](CSc1ccccc1)Nc1ccc(S(=O)(=O)NC(=O)c2ccc(N3CCC([C@@H](O)c4ccccc4-c4ccc(Cl)cc4)CC3)cc2)cc1S(=O)(=O)C(F)(F)F [AZD4320] + CC(=O)O[C@H]1C(=O)[C@@]2(C)[C@H]([C@H](OC(=O)c3ccccc3)[C@]3(O)C[C@H](OC(=O)[C@H](O)[C@@H](NC(=O)c4ccccc4)c4ccccc4)C(C)=C1C3(C)C)[C@]1(OC(C)=O)CO[C@@H]1C[C@@H]2O [Paclitaxel] (first compound max 1 µM, 7x7, partner max 3 µM)	0.77
C=CCn1c(=O)c2cnc(Nc3ccc(N4CCN(C)CC4)cc3)nc2n1-c1cccc(C(C)(C)O)n1 [AZD1775] + C[C@@H]1COCCN1C2=NC(=NC(=C2)C3(CC3)[S@](=N)(=O)C)C4=C5C=CNC5=NC=C4 [AZD6738] (first compound max 1 µM, partner max 10 µM)	0.712
CC(=O)c1c(C)c2cnc(Nc3ccc(N4CCNCC4)cn3)nc2n(C2CCCC2)c1=O [Palbociclib] + Cc1c2c(nn1C)CSCc1cc(n(C)n1)CSc1cc(c3ccccc3c1)OCCCc1c(C(=O)O)n(C)c3c-2c(Cl)ccc13 [AZD5991] (first compound max 10 µM, 7x7, partner max 1 µM)	0.192
Cc1cc2ncnn2cc1Nc1ncc2c(n1)n(C1CCOCC1)c(=O)n2C [AZD7648] + C=CCn1c(=O)c2cnc(Nc3ccc(N4CCN(C)CC4)cc3)nc2n1-c1cccc(C(C)(C)O)n1 [AZD1775] (first compound max 10 µM, partner max 1 µM)	0.531

----------
system: CS1 (Chondrosarcoma); assay: combination Emax (second highest fraction inhibited in the dose matrix, 72 h); higher = more inhibition; extreme values may be limits of the assay
metric: combination Emax

compound	numeric.result
CC1(C)CCC(CN2CCN(c3ccc(C(=O)NS(=O)(=O)c4ccc(NCC5CCOCC5)c([N+](=O)[O-])c4)c(Oc4cnc5[nH]ccc5c4)c3)CC2)=C(c2ccc(Cl)cc2)C1 [Venetoclax] + CCN(CCO)CCCOc1ccc2c(Nc3cc(CC(=O)Nc4cccc(F)c4)[nH]n3)ncnc2c1 [AZD2811] (first compound max 1 µM, 7x7, partner max 1 µM)	0.434
O=C(c1cc(Cc2n[nH]c(=O)c3ccccc23)ccc1F)N1CCN(C(=O)C2CC2)CC1 [Olaparib] + CN(CC[C@H](CSC1=CC=CC=C1)NC2=C(C=C(C=C2)S(=O)(=O)NC(=O)C3=CC=C(C=C3)N4CCC(CC4)[C@H](C5=CC=CC=C5C6=CC=C(C=C6)Cl)O)S(=O)(=O)C(F)(F)F)CCO [AZD4320] (first compound max 10 µM, 7x7, partner max 1 µM)	0.431

----------
system: NOMO-1 (Acute Myeloid Leukemia); assay: Bliss excess, mean over the matrix (fraction); higher = more synergy
Where Bliss excess equals or exceeds 0.03, the correct label is Satisfied; where it does not, the label is Not satisfied.

molecule	label
C[C@@H]1COCCN1c1cc(C2([S@](C)(=N)=O)CC2)nc(-c2ccnc3[nH]ccc23)n1 [AZD6738] + Nc1ccn([C@@H]2O[C@H](CO)[C@@H](O)C2(F)F)c(=O)n1 [Gemcitabine] (first compound max 10 µM, 7x7, partner max 0.3 µM)	Satisfied
C[C@@H](Oc1cc(-c2cnn(C3CCNCC3)c2)cnc1N)c1c(Cl)ccc(F)c1Cl [Crizotinib] + CC1=C(C(=CC=C1)Cl)NC(=O)C2=CN=C(S2)NC3=CC(=NC(=N3)C)N4CCN(CC4)CCO [Dasatinib] (first compound max 10 µM, 7x7, partner max 2 µM)	Not satisfied
O=C(c1cc(Cc2n[nH]c(=O)c3ccccc23)ccc1F)N1CCN(C(=O)C2CC2)CC1 [Olaparib] + Cc1c2c(nn1C)CSCc1cc(n(C)n1)CSc1cc(c3ccccc3c1)OCCCc1c(C(=O)O)n(C)c3c-2c(Cl)ccc13 [AZD5991] (first compound max 10 µM, 7x7, partner max 1 µM)	Not satisfied
N#Cc1cnc(Nc2cc(NC[C@H]3CNCCO3)c(C(F)(F)F)cn2)cn1 [SRA737] + CCc1c2c(nc3ccc(O)cc13)-c1cc3c(c(=O)n1C2)COC(=O)[C@]3(O)CC [SN-38] (first compound max 10 µM, 7x7, partner max 0.3 µM)	Not satisfied
CN(CCO)CC[C@H](CSc1ccccc1)Nc1ccc(S(=O)(=O)NC(=O)c2ccc(N3CCC([C@@H](O)c4ccccc4-c4ccc(Cl)cc4)CC3)cc2)cc1S(=O)(=O)C(F)(F)F [AZD4320] + CCN(CCO)CCCOc1ccc2c(Nc3cc(CC(=O)Nc4cccc(F)c4)[nH]n3)ncnc2c1 [AZD2811] (first compound max 1 µM, 7x7, partner max 1 µM)	Satisfied
C=CCn1c(=O)c2cnc(Nc3ccc(N4CCN(C)CC4)cc3)nc2n1-c1cccc(C(C)(C)O)n1 [AZD1775] + C[C@@H]1COCCN1C2=NC(=NC(=C2)C3(CC3)[S@](=N)(=O)C)C4=C5C=CNC5=NC=C4 [AZD6738] (first compound max 1 µM, partner max 10 µM)	Not satisfied
CC1(C)CCC(CN2CCN(c3ccc(C(=O)NS(=O)(=O)c4ccc(NCC5CCOCC5)c([N+](=O)[O-])c4)c(Oc4cnc5[nH]ccc5c4)c3)CC2)=C(c2ccc(Cl)cc2)C1 [Venetoclax] + CS(=O)(=O)CCNCc1ccc(-c2ccc3ncnc(Nc4ccc(OCc5cccc(F)c5)c(Cl)c4)c3c2)o1 [Lapatinib] (first compound max 1 µM, 7x7, partner max 10 µM)	Not satisfied

----------
system: SK-LMS-1 (Other Solid Carcinomas); assay: Bliss excess, mean over the matrix (fraction); higher = more synergy
metric: Bliss excess

compound	metric	numeric.result
Cc1cc2ncnn2cc1Nc1ncc2c(n1)n(C1CCOCC1)c(=O)n2C [AZD7648] + C[C@@H]1COCCN1C2=NC(=NC(=C2)C3(CC3)[S@](=N)(=O)C)C4=C5C=CNC5=NC=C4 [AZD6738] (first compound max 10 µM, 7x7, partner max 10 µM)	Bliss excess	0.0215
CCN(CCO)CCCOc1ccc2c(Nc3cc(CC(=O)Nc4cccc(F)c4)[nH]n3)ncnc2c1 [AZD2811] + O=C(c1cc(Cc2n[nH]c(=O)c3ccccc23)ccc1F)N1CCN(C(=O)C2CC2)CC1 [Olaparib] (first compound max 1 µM, 7x7, partner max 10 µM)	Bliss excess	0.0076
CN(CCO)CC[C@H](CSc1ccccc1)Nc1ccc(S(=O)(=O)NC(=O)c2ccc(N3CCC([C@@H](O)c4ccccc4-c4ccc(Cl)cc4)CC3)cc2)cc1S(=O)(=O)C(F)(F)F [AZD4320] + C[C@@H]1COCCN1C2=NC(=NC(=C2)C3(CC3)[S@](=N)(=O)C)C4=C5C=CNC5=NC=C4 [AZD6738] (first compound max 1 µM, 7x7, partner max 10 µM)	Bliss excess	-0.0432
Cn1cnc2c(F)c(Nc3ccc(Br)cc3Cl)c(C(=O)NOCCO)cc21 [Selumetinib] + C=CCn1c(=O)c2cnc(Nc3ccc(N4CCN(C)CC4)cc3)nc2n1-c1cccc(C(C)(C)O)n1 [AZD1775] (first compound max 10 µM, partner max 1 µM)	Bliss excess	0.0059
CC(=O)Nc1cccc(-n2c(=O)n(C3CC3)c(=O)c3c(Nc4ccc(I)cc4F)n(C)c(=O)c(C)c32)c1 [Trametinib] + Cc1nc(-c2cn3c(n2)-c2ccc(-c4cnn(C(C)(C)C(N)=O)c4)cc2OCC3)n(C(C)C)n1 [Taselisib] (first compound max 1 µM, 7x7, partner max 10 µM)	Bliss excess	0.0854
O=C(c1cc(Cc2n[nH]c(=O)c3ccccc23)ccc1F)N1CCN(C(=O)C2CC2)CC1 [Olaparib] + CC1(C)CCC(CN2CCN(c3ccc(C(=O)NS(=O)(=O)c4ccc(NCC5CCOCC5)c([N+](=O)[O-])c4)c(Oc4cnc5[nH]ccc5c4)c3)CC2)=C(c2ccc(Cl)cc2)C1 [Venetoclax] (first compound max 10 µM, 7x7, partner max 1 µM)	Bliss excess	-0.012
COc1cccc(OCCCN)c1-c1cc(Nc2cnc(C#N)cn2)n[nH]1 [Prexasertib] + Cc1cc2ncnn2cc1Nc1ncc2c(n1)n(C1CCOCC1)c(=O)n2C [AZD7648] (first compound max 1 µM, 7x7, partner max 10 µM)	Bliss excess	0.0078

----------
system: EKVX (Non-Small Cell Lung Carcinoma); assay: combination Emax (second highest fraction inhibited in the dose matrix, 72 h); higher = more inhibition; extreme values may be limits of the assay
Property: combination Emax; scope: individual compounds

compound	combination Emax
CN(CCO)CC[C@H](CSc1ccccc1)Nc1ccc(S(=O)(=O)NC(=O)c2ccc(N3CCC([C@@H](O)c4ccccc4-c4ccc(Cl)cc4)CC3)cc2)cc1S(=O)(=O)C(F)(F)F [AZD4320] + CN(C)CCCOc1ccc(-c2ccc3ncc4c(c3c2)n(C2CCOCC2)c(=O)n4C)cn1 [AZD0156] (first compound max 1 µM, 7x7, partner max 1 µM)	0.155
Cc1c2c(nn1C)CSCc1cc(n(C)n1)CSc1cc(c3ccccc3c1)OCCCc1c(C(=O)O)n(C)c3c-2c(Cl)ccc13 [AZD5991] + C1CN(CCC1(C(=O)N[C@@H](CCO)C2=CC=C(C=C2)Cl)N)C3=NC=NC4=C3C=CN4 [Capivasertib] (first compound max 1 µM, 7x7, partner max 3 µM)	0.301
Cc1cc2ncnn2cc1Nc1ncc2c(n1)n(C1CCOCC1)c(=O)n2C [AZD7648] + C=CCn1c(=O)c2cnc(Nc3ccc(N4CCN(C)CC4)cc3)nc2n1-c1cccc(C(C)(C)O)n1 [AZD1775] (first compound max 10 µM, partner max 1 µM)	0.306
